# Measurement Description: yeast display, Sf9 membrane polyspecificity reagent, FACS + sequencing; frameworks hold sequencing errors

Sequence String	polyreactivity (PSR sort gate)
QVQLEESGGGLVQAGGSLRLSCASSGSTFATYAMGWDRQAPGKERELVAGISKRGGRTYYADSLKGRFTISRDNAKNTVYFQMNSLKPEDTAVYYCARYSPYYRVKDYDSWGQGTQVTVSS	high polyreactivity
QVQLVESGGGLLQAGGSLRLSCAASGSTFVTNDMGWYRPAPGKERELVAAISSGSSTNYADSVKGRFTISRDNAKNSVYVHMNSLKPEDTAVYYCAADSLKRYDYWGQGTQVTVSS	low polyreactivity
QVQLVESGGGLVQAGGSLRLSCAASGFTFSYYAMGWYRQAPGKERELVAAISRSGGSPYYADSVKGRFTISRDNAKYTVYLQMNSLKPADTAVYYCATDLSYRHGYWGQGTQVTVSS	high polyreactivity
QVQLVESGGGLVQAGGSLRLSCAASGITFYPNDMGWYRQAPGKERELVAAITTNDGDTYYADSVKGRFTISRDNAKNTVYVQMNSLKPEDTAVYYCATGIDKGPVWVTYSTDYDYWGQGTQVTVSS	low polyreactivity
QVQLVESGGGLVQEGGSIRLSCAASGSTFFLYAMGWYRQAPGKERELVAAITYTDGDTYYADSVKGRFTISRDNAKNTVYLQMNSLKPEDNAVYYCNAGGDEPVYGSGYDYWGQGTQVTVSS	low polyreactivity
QVQLVESGGGLVQAGGSLRISCAASGFTFAYYAMGRYRQAPGKERELVASITSGGSTYYADSVKGRFTISRDNAKNNVYLQMNSLKPEDTAVYYCAADSSIDYDWGQGTQVTVSS	high polyreactivity
QVQLVESGGGLVQAGGSLRLSCAASGFIFGDYAMGWYRQAPGKERELVAAINYSGGSTYYADSVKGRFTISRDNAKNTVYLQMNSLKPEDTAVYYCAALIYGLVGWGQGTQVTVSS	low polyreactivity
QVQLVESGGGLVQAGGSHRLSCAASGSIFRGYAMGWSIQAPGKERELVAAISWRGTSTYYADSVKGRFTISRDNAKNTVYLQMNSLKPEDTAVYYCAADLDGDYYYYGQGNDYWGQGTQVTVSS	low polyreactivity
QVQLVESGGGLVQAGGSLRLSCAASGITFYLYAMGWYRQAPGKERELVAAISSSGGSTYYADSVKGRFTISRDNAKNTVYLQMNSLKPEDTAVYYCNARRRTVPYRYYYWGQGTQVTVSS	high polyreactivity
QVQLVESGGGLVQAGGSLRLSCAASGRIFGYYAMGWYRQAPGKERELVAAIDGSGGTTYYADSVKGRITISRDNAKNSVYLQMNSLKPEATAVYYCAARGYNSKYGYWGQGTQVTVSS	high polyreactivity
QVQLVESGGGLVQAGGSLRLSCAASGIIFPQYTMGWYRQAPGKERQLVAAITRSGGSTDYADSVKGRFTISRDNAKNTVYLQMNSLKPEDTAVYYCAAGWWRYKYPIGSSYNYWGQGTQVTVSS	high polyreactivity

* * *

# Measurement Description: yeast display, Sf9 membrane polyspecificity reagent, FACS + sequencing; frameworks hold sequencing errors

Sequence String	polyreactivity (PSR sort gate)
QVQLVESGGGLVQAGGSLRLSCAASGSTFWYNAMGWYRQAPGKEREFVASISFRSGRTYYADSVKGRFTISRDNAKNTVYLQMNSLKPEDTAVYYCAADYYQYKYDYWGQGTQVTVSS	high polyreactivity
QFQLVESGGGLVQAGGSLRLSCAASGSIFYGYAMGWYRQAPGKERELVAAITSSNGSTYYADSVKGRFTISRDNEKNTVYLQMNSLKPEDTAVYYCAADVHGSYYIKPNVWYDYWGQGTQVTVSS	low polyreactivity
QVQLVESGGRLVQAGGILRLSCAASGFIFLSYAMGWYRQAPGKERELVAAITSNGGSTYYADSVKGRFTISRDNAKNTVYLQMNSLKPEDTSVYYCAARFSQGKVRMGYWGQGTQVTVSS	high polyreactivity
QVQLVESVGGLVQAGGSLRLSSAASGYIFFGNAMGWYRQAPGKERELVAAIRWRGTSTYYADSVKGRFTISRDNAKNTVYLQMNSLKPEDTAVYYCAKDGRVHSPYDYWGQGTQVTVSS	low polyreactivity
QVKHVESGGGLVQAGGSLRLTCAASGSIFYRNAMGWYRQAPGKERELVAGISRRGGSTYYADSVKGRFTMSRDNAKNTVYLQMNSLKPEDTAGYYCAADFAWVRLTYGYCGQGTQVTVSS	low polyreactivity
